# target or system: human Orexin-2 receptor (Homo sapiens)
# Construct: expressed in transfected cells; host or cells: HEK293 cells (transient transfection, Genejuice); membranes
# method summary: 3H-EMPA radioligand binding assay
# stated conditions: 3H-EMPA displacement, membranes of HEK293 cells transfected with human Orexin-2 receptor; KI by Cheng-Prussoff; read-out: OX2 pKi ave (converted)
# Experimental: cDNA encoding the human Orexin-2 receptor was transfected into HEK293 cells using the transfection reagent Genejuice (Novagen). Forty-eight hours after transfection, cells were harvested and washed twice with ice cold phosphate-buffered saline. The pellet was resuspended in ice-cold buffer containing 20 mM Tris-HCl, pH 7.4, 1 mM EDTA and homogenised with an Ultraturax for 30 s at maximum speed. […] Protein concentration was determined using the BCA protein assay method. […]
Could you mark each record Satisfied if its Ki falls strictly under 10 nM, and Not satisfied if it equals or exceeds it?

Illustrative cases are given below, each with its answer.
CCn1cc(N2C(=O)N(Cc3c(F)cccc3Cl)c3ccccc3S2(=O)=O)cn1	Not satisfied
CSc1cccc(N2C(=O)N(Cc3c(F)cccc3Cl)c3ccc(F)cc3S2(=O)=O)c1	Not satisfied
CCOc1ccc(N2C(=O)N(Cc3c(F)cccc3Cl)c3ccccc3S2(=O)=O)cc1	Not satisfied

Decide: Ki of "CC(=O)c1ccc(N2C(=O)N(Cc3c(F)cccc3Cl)c3ccccc3S2(=O)=O)cc1" strictly below 10 nM?
Not satisfied

Decide: Ki of "COc1cccc(N2C(=O)N(Cc3c(F)cc(F)cc3F)c3ccccc3S2(=O)=O)n1" strictly below 10 nM?
Not satisfied

Decide: Ki of "CCc1cccc(N2C(=O)N(Cc3c(F)cccc3Cl)c3ccccc3S2(=O)=O)c1" strictly below 10 nM?
Satisfied

====

# target or system: human Orexin-2 receptor (Homo sapiens)
# Construct: expressed in transfected cells; host or cells: HEK293 cells (transient transfection, Genejuice); membranes
# Sequence (O43614 1-444): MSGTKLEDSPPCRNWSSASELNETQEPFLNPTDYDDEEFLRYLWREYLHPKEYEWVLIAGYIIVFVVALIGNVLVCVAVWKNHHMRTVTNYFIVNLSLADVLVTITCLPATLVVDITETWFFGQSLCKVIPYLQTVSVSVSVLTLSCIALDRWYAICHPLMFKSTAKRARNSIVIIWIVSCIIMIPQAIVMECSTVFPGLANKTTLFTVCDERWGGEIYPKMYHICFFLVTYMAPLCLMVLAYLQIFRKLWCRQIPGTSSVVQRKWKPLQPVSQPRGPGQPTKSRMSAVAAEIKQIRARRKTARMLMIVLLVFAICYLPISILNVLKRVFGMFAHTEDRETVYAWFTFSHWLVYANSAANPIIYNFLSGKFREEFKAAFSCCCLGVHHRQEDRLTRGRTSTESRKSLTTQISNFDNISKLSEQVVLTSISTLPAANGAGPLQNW
# method summary: 3H-EMPA radioligand binding assay
# stated conditions: 3H-EMPA displacement, membranes of HEK293 cells transfected with human Orexin-2 receptor; KI by Cheng-Prussoff; read-out: OX2 pKi ave (converted)
property name: Ki (nM)
// return numeric value only (unit: nM, not printed)

CSc1cccc(N2C(=O)N(Cc3cc(C)ccc3C)c3ccccc3S2(=O)=O)c1	17.8
COc1cc(F)c(CN2C(=O)N(c3cc(OC)nc(OC)c3)S(=O)(=O)c3ccccc32)c(F)c1	0.138

Could you now look at the following compound, please?
Please report Ki for the following compound: "COc1cc(OC)cc(N2C(=O)N(Cc3ccccc3F)c3ccccc3S2(=O)=O)c1"
26.9
